Numbers sourced from paper PMC3723589.

target: mouse Slo1 K+ channels (Mus musculus); experiment: Block of Slo1 currents, blocker applied extracellularly to outside-out patches; format: cell-based; details: read-out: Kbo (affinity of blocker to open state); extracellular TEA; pipette 300 μM Ca2+, pH 8.5; fit OB (1a) 2 params
readoutKind: Kd
Answer format: number, then unit.

(Q) Look up Kd: `CC[N+](CC)(CC)CC`
(A) 132 µM

---

target: mouse Slo1 K+ channels (Mus musculus, UniProt Q08460); assay: Block of Slo1 currents, blocker applied cytosolically to inside-out patches; assay type: cell-based; conditions: read-out: Kbo; cytosolic TEA; 300 μM Ca2+, pH 8.5; fit OB-CB (2') 4 params
Sequence (Q08460 66-1209 limits assumed): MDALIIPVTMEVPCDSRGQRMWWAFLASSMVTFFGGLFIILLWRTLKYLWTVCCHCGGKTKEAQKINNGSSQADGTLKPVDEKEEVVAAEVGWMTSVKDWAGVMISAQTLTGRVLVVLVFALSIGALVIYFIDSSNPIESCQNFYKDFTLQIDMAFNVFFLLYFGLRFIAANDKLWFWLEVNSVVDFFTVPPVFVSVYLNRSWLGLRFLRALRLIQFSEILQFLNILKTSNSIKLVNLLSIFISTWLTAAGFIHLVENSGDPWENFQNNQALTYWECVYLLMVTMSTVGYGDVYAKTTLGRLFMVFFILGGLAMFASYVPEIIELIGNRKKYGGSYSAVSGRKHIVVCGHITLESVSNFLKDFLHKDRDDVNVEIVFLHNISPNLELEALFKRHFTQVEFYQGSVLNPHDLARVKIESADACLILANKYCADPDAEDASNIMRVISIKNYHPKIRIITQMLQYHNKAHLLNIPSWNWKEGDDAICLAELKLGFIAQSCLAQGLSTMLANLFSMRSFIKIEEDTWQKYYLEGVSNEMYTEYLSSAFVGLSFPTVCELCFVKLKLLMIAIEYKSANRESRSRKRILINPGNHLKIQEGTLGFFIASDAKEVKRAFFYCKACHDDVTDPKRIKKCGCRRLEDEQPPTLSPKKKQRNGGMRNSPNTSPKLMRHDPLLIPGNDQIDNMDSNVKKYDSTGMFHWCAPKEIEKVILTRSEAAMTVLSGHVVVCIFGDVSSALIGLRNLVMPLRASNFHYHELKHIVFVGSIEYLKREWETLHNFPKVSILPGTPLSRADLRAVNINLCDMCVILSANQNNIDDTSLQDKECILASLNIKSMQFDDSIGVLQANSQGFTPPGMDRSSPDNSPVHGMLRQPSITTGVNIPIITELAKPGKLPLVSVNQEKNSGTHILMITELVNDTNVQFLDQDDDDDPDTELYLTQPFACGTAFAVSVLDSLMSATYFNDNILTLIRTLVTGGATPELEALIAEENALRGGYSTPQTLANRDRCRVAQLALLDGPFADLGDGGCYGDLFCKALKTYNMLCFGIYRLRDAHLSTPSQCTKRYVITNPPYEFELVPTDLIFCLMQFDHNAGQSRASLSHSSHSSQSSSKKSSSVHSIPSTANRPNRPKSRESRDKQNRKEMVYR
readoutKind: pKd
pKd here is simply -log10 of the concentration when that concentration is written in mol/L.

(Q) Checklist item: pKd tested on mouse Slo1 K+ channels (Mus musculus, UniProt Q08460), entry `CC[N+](CC)(CC)CC` , value?
(A) 1.10
